Molecular target: Protein translocase subunit SecA (Escherichia coli (strain K12)) (UniProt P10408)
Sequence (P10408 whole entry): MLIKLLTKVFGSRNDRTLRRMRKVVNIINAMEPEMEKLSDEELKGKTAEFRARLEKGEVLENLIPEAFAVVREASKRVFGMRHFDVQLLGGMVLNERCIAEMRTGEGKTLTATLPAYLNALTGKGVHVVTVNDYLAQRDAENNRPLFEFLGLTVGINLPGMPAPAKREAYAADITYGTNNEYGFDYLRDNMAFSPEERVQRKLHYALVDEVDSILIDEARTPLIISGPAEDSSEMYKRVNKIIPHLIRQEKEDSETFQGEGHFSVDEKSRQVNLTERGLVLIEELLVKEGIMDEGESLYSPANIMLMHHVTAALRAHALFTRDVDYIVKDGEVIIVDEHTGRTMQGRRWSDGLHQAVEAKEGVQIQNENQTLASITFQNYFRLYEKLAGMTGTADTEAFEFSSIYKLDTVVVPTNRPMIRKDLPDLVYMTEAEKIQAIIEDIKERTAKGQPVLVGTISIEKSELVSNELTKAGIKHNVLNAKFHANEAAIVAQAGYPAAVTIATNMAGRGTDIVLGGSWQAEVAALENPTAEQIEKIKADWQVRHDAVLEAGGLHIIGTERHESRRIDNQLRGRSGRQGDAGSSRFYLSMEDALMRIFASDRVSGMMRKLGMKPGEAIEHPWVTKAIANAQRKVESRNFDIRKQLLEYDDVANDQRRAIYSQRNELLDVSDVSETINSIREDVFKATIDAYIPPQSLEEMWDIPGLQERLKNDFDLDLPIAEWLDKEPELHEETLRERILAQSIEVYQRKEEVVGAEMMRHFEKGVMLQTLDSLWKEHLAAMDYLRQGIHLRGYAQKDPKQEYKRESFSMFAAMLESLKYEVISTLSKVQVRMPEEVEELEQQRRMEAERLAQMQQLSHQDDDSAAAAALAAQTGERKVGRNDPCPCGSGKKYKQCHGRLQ
Assay: Assay to Identify E. coli SecA ATPase Inhibitors
Format: functional
Design: scale not given: direction of the effect not stated beside the values
Details: 30 µM
Potency and affinity values are given separately.
experimental readout: Percent Effect (%)
Reply with just the number (in %).

Inquiry: Record request: Percent Effect value, item Cc1nc(C)n(CC2CCCN2Cc2cc(C)on2)n1 (centres undefined)
Reply text: -7.09

Inquiry: Next molecule up: COC(=O)CCN1CCCC1c1ccccc1Cl (centres undefined)
Reply text: -3.1

Inquiry: Also check CC(C)(C)NC(=O)CNC(=O)CCc1ccccc1Br
Reply text: -3.98

Inquiry: Repeat with CC1c2ncc(COc3cccnc3)n2CCN1C(=O)Cc1ccco1 (centres undefined)
Reply text: -6.11

Inquiry: Can you handle CN(CC(=O)NC1(C#N)CCCC1)C1CCCN(c2cccnn2)C1 (centres undefined) next?
Reply text: -3.01

Inquiry: And for CC(C)Cc1cc(C(=O)NCCc2ccc(S(C)(=O)=O)cc2)[nH]n1 ?
Reply text: -3.28

Inquiry: Now give it for COC(=O)C(NC(=O)c1ccco1)c1cc(F)ccc1F (centres undefined) too.
Reply text: -3.29

Inquiry: Same question, Cc1noc(Cl)c1CCC(=O)N1CCCCC1Cn1cccn1 (centres undefined) this time
Reply text: -5.73

Inquiry: Same thing, different molecule: CC(CNc1cncc(-n2cccn2)n1)N(C)c1ccccc1 (centres undefined)
Reply text: -0.428

Inquiry: Now the same for O=C(C1=CCCC1)N1CCO[C@H]2[C@@H](Oc3ccccn3)CC[C@@H]21
Reply text: -2.61

Inquiry: And for O=C(NCCc1ccncc1)C1CCN(Cc2ccco2)CC1 ?
Reply text: -7.38

Inquiry: Also need CCN(CC(=O)NC(C)C)S(=O)(=O)N1CCCCCC1 , thanks.
Reply text: -2.15

Inquiry: Ok, now O=C(c1n[nH]c2ccccc12)N1CCCC1c1noc(C2CC2)n1 (centres undefined)
Reply text: -4.36

Inquiry: Could you do the same for COc1cccc(CN(C)C(=O)CCC(=O)c2ccc(Cl)cc2)c1OC , please?
Reply text: -3.29

Inquiry: Also check COCCC(=O)N1CCC2(COCc3cnc(-c4ccccc4)nc32)C1 (centres undefined)
Reply text: -1.59

Inquiry: Now give it for CC1=Nc2c(c(=O)[nH]n2C(C)C)C(c2ccc(F)c(F)c2)S1 (centres undefined) too.
Reply text: -5.53

Inquiry: Now try O=C1[C@H]2CN(CC3CC3)C[C@H]2CN1Cc1cccc(F)c1 .
Reply text: 1.22

Inquiry: And then O=C(N1CCCCC1)N1CCN(CC(O)c2ccc(F)cc2)CC1 (centres undefined) , what is it?
Reply text: -0.539

Inquiry: Entry Cc1cnn(C2CCCN(C(=O)C3=NN(C)C(=O)CC3)C2)c1 (centres undefined) please
Reply text: -6.81

Inquiry: Here is the next molecule: Cc1ccc(CNCc2nnc3n2CCCC3C(F)(F)F)o1 (centres undefined)
Reply text: -2.71

Inquiry: What do we get for CC(C)Nc1ncnc2c1CCN(C(=O)Cc1ccccn1)CC2 ?
Reply text: -6.13

Inquiry: Same again, this time with CCn1c(Cn2cncn2)nnc1C1CCN(C(=O)CCSC)CC1
Reply text: -3.03

Inquiry: And the next one, Cc1nc(CN2CCN(C(=O)c3ccn(C)c(=O)c3)CC2)cs1 ?
Reply text: -3.89

Inquiry: Cc1cccc(CN2CCc3ncnc(N4CCOCC4)c3CC2)n1 , same question.
Reply text: -4.12

###

Target: Ubiquitin-activating enzyme e1, putative (Leishmania donovani (strain BPK282A1)) (UniProt E9BSI1)
Sequence (E9BSI1 as listed by the source): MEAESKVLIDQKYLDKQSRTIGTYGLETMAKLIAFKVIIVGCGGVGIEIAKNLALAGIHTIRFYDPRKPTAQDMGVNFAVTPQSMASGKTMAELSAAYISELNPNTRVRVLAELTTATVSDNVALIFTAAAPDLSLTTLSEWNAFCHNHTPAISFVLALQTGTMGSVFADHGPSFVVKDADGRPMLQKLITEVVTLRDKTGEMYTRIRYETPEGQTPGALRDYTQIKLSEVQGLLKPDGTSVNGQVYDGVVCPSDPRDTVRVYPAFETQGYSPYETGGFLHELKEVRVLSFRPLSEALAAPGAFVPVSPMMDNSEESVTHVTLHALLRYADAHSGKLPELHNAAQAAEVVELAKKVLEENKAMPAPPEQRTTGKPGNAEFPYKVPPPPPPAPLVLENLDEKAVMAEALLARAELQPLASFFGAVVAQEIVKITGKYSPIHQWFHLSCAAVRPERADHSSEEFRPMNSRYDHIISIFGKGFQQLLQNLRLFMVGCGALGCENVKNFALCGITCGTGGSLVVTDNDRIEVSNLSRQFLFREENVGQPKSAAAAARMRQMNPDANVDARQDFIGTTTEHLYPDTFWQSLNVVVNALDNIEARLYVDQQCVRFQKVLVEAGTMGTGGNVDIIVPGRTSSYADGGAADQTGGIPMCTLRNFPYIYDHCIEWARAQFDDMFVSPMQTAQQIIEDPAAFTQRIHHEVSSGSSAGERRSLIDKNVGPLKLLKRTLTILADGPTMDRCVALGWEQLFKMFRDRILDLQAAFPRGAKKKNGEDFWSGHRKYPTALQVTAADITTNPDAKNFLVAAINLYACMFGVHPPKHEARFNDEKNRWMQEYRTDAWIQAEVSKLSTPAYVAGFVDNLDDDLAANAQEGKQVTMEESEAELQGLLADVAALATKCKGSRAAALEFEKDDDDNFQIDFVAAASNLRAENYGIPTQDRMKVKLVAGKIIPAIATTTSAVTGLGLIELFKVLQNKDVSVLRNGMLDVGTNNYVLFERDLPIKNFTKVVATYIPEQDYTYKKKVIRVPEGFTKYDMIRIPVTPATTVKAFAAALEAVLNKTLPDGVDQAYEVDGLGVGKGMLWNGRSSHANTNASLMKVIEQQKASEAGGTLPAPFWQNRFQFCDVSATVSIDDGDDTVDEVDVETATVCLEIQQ
Experiment: Leishmania donovani Ubiquitin Activating Enzyme (LdE1)
Format: functional
Parameters: scale not given: direction of the effect not stated beside the values
Settings: 30 µM
Potency and affinity values are given separately.
experimental readout: Percent Effect
Please report the result as a number followed by the unit.

Inquiry: Tell me the measured Percent Effect of Cc1ccccc1-n1ncc(C(=O)N2CCCC2c2cnn(C)c2)c1C (stereo unspecified) , please.
Reply text: 10.8%

Inquiry: Moving on to Cn1c(Cn2ccnc2)nnc1C1CCN(Cc2cccnc2N)CC1
Reply text: -9.72%

Inquiry: O=C(Cn1c(=O)n(Cc2ccco2)c2ncccc21)Nc1ccccn1 ?
Reply text: 1.35%

Inquiry: Let us now turn to COC(=O)c1cccc(C(=O)N2CCCCC2CCn2ccnc2C)c1 (stereo unspecified)
Reply text: 8%

Inquiry: Queued: CC(C)c1nccn1C1CCCN(C(=O)c2ccc3[nH]nnc3c2)C1 (stereo unspecified)
Reply text: 7.79%

Inquiry: Same thing, different molecule: CN(C)C(=O)CN1C[C@@H]2CC[C@H](C1)N(Cc1cccc(Cl)c1Cl)C2
Reply text: 2.74%

Inquiry: Okay, and CS(=O)(=O)c1ccc(CNC2CCCN(c3cccnn3)C2)cc1 (stereo unspecified) ?
Reply text: 18.2%

Inquiry: Next molecule up: Cc1csc(C2CCCN(C(=O)c3ccc(=O)n(C)n3)C2)n1 (stereo unspecified)
Reply text: 0%

Inquiry: And for CC(NC(=O)N(C)Cc1ccsc1)c1ccc2c(c1)CCC(=O)N2 (stereo unspecified) ?
Reply text: 15.8%

Inquiry: Next molecule: CCOCC(O)CN1CCN(C(=O)c2cnc3n[nH]c(C)c3c2)CC1 (stereo unspecified)
Reply text: 10.5%

Inquiry: What do you have for Cc1ccc2c(ccn2CC(=O)NC[C@@H]2CCCN3CCCC[C@H]23)c1 ?
Reply text: 28%

###

Molecular target: Tyrosyl-tRNA synthetase, putative (Trypanosoma cruzi (strain CL Brener)) (UniProt Q4DSP6)
Sequence (Q4DSP6 as listed by the source): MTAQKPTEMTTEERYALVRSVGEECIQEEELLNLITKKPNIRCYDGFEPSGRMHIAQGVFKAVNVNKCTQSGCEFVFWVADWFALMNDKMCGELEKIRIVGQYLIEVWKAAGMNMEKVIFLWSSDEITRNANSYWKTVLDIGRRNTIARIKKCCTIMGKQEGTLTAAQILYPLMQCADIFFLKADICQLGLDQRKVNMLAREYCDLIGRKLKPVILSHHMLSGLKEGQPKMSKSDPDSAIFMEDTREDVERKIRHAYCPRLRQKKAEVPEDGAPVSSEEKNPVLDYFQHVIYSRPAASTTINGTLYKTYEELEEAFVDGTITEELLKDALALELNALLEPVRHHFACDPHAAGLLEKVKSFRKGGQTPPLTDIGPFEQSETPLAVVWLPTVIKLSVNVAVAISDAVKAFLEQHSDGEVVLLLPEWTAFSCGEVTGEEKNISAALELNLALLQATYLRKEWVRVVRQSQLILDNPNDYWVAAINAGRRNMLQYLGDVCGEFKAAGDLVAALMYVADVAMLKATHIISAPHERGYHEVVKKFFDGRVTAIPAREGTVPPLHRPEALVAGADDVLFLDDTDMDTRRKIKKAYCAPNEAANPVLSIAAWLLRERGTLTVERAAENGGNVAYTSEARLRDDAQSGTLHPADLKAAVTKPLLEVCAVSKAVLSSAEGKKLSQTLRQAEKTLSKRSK
Assay: Trypanosoma cruzi tyrosyl tRNA synthetase (TcYRS) _High Tyrosine SOP; also: in the data most compounds retested in dose-response had high values
Assay type: functional
Design: scale not given: direction of the effect not stated beside the values
Details: 30 µM
Give measured Percent Effect for each item. Keep answers brief.
Just the number please, in %, no unit attached.

Inquiry: Data request, read-out Percent Effect, for Cc1cc(NC(=O)c2nc(N3CCCC3)ncc2Cl)nc(C(C)C)n1
Reply text: 9.9

Inquiry: What would you report for Cc1nn(C)c2c(N3CCN(C(=O)C4CCC4)CC3)ncnc12 ?
Reply text: -15.9

Inquiry: Proceed to COc1ccc(C2CCCN2C(=O)NCCNc2ncccn2)cc1 (configuration not stated)
Reply text: 5.38

Inquiry: Entry Cc1cnn(C2CN(CC(=O)NCCc3ccccc3)C2)c1 please
Reply text: 5.42

Inquiry: Same thing, different compound: CNc1nc2c(s1)C(c1c(Cl)cccc1Cl)CC(=O)N2 (configuration not stated)
Reply text: -10.6

Inquiry: Further, for O=C(Cn1cnnn1)N1CCCCC1Cn1cccn1 (configuration not stated) ?
Reply text: -3.45

Inquiry: Same question for Cc1ccc(N2CCCC(NCc3nc(C)c(C)o3)C2)nn1 (configuration not stated) please.
Reply text: 3.12

Inquiry: Queued: COCCO[C@@H]1CCN(Cc2csc(C)n2)[C@H]1Cc1ccccc1
Reply text: 1.07

Inquiry: What do we get for Cc1cc(=O)n(CC(=O)NCC2CCCO2)c(-c2cccc(Cl)c2)n1 (configuration not stated) ?
Reply text: 5.38

Inquiry: Further, for O=C(c1ccsc1)N1CC(C(=O)N2CCOCC2)C2(CCOCC2)C1 (configuration not stated) ?
Reply text: -29.6

Inquiry: How about CCOCC1CN(C(=O)C2=CCCC2)Cc2cnn(CC)c21 (configuration not stated) ?
Reply text: 3.24

Inquiry: What do we get for NC(=O)COc1ccc(CNCc2ccc(F)c(F)c2)cc1 ?
Reply text: 7.37

###

System: Trypanosoma cruzi
Assay: Trypanosoma cruzi phosphomannomutase and mannose-1-phosphate guanylyltransferase assay
Assay type: functional
Parameters: scale not given: direction of the effect not stated beside the values
Settings: 10 µM
Give measured Percent Effect for each item. Keep answers brief.
The reply should be a number in %, with the unit left off.

Inquiry: I'd like to know its Percent Effect. The molecule in question is COc1ccnc(N2CCN(C(=O)c3cnn(C)c3C3CC3)CC2)n1
Reply text: 3.81

Inquiry: Now this one: CCCNC(=O)CCNC(=O)Cc1nc(-c2ccco2)oc1C
Reply text: -5.16

Inquiry: Also check CCCOCCN1CCC2(CC1)CC(c1ccccc1)C(=O)N2C (centres undefined)
Reply text: -9.45

Inquiry: And then Cn1cc(CN2CC[C@H]3O[C@H](C(=O)NCc4ccco4)CC[C@H]32)cn1 , what is it?
Reply text: -7.14

Inquiry: # repeat for Cn1cnnc1C1CCCN(C(=O)NCc2cc[nH]n2)C1 (centres undefined)
Reply text: 4.01

Inquiry: What do you have for CC(O)CN1CCN(C(=O)c2cc3ccccc3c(=O)[nH]2)CC1 (centres undefined) ?
Reply text: -3.41

Inquiry: Could you do the same for Cc1ccc(-c2ncc(C(=O)NCCS(N)(=O)=O)s2)c(C)c1 , please?
Reply text: -5

Inquiry: Now consider COCC1CCN(c2cc(C3CN(C)CCO3)nc(C)n2)CC1 (centres undefined) and answer again.
Reply text: -1.77

Inquiry: Consider next the molecule O=C1N(Cc2ccccc2F)CCCC12CCN(C1CCSCC1)C2 (centres undefined) in the same way.
Reply text: -1.46

Inquiry: What do you have for O=C(Cc1ccsc1)N1C[C@@H]2CN(Cc3ccoc3)CCO[C@@H]2C1 ?
Reply text: 1.86

Inquiry: Moving on to the next molecule: Cc1nc(CN2CCOC(c3nc(C(C)C)n[nH]3)C2)oc1C (centres undefined)
Reply text: 2.74

Inquiry: For CCOc1ccc(Cl)c(C(=O)N2CCN(CCO)CC2)n1 then?
Reply text: -3

Inquiry: Cc1noc([C@H]2CC[C@@H]3[C@@H](CCN3S(C)(=O)=O)O2)n1 ?
Reply text: 0.977

Inquiry: Okay, and Cc1csc(N2CCN(CC(=O)Nc3nncs3)CC2C)n1 (centres undefined) ?
Reply text: -0.836

Inquiry: Another molecule to check: c1cc2c(cc1C1CCCN1Cc1nnnn1C1CC1)OCCO2 (centres undefined)
Reply text: 6.32

Inquiry: Next record, please: Cc1nnc(N2CC[C@H]3C[C@H](C(=O)N4CCOCC4)O[C@H]3C2)s1
Reply text: 0.0978

Inquiry: Another: CS(=O)(=O)NCCC(=O)NC1CCc2nccn2C1 (centres undefined)
Reply text: -7.5

Inquiry: Moving on to the next molecule: O=c1cc2c(nn1CN1CCN(c3ccccc3)CC1)CCC2
Reply text: 0

Inquiry: Another molecule: CN(CC1(O)CCCCC1)C1CCCN(Cc2noc(C3CC3)n2)C1 (centres undefined)
Reply text: -3.46

Inquiry: Query Cc1cn2nc(N3CCCN(Cc4noc(C)n4)CC3)sc2n1 next
Reply text: -2.97

Inquiry: Entry to check: CN(C)C(=O)CN(C)C(=O)c1cnc(Cc2ccc(F)cc2)s1
Reply text: -1.07

Inquiry: Queued: COCC1c2c(cnn2CC2CCOCC2)CCN1Cc1ccoc1 (centres undefined)
Reply text: 1.76

Inquiry: Next molecule up: Cn1cc(C(=O)Nc2ccc3c(c2)CN(C(=O)c2ccco2)CC3)nn1
Reply text: 3.65

Inquiry: Record: CCCS(=O)(=O)N1CCC2(CN(c3ccsc3)C(=O)CN2C)C1 (centres undefined)
Reply text: 2.34
